Where these numbers come from: ChEMBL document CHEMBL1909046

system_tested: Aldo-keto reductase family 1 member B1 (Rattus norvegicus, UniProt P07943); further: in other assays of this panel Not Active means under 50% inhibition at 10 µM;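 further: inhibition of aldose reductase enzyme activity, measured with DL-glyceraldehyde as the substrate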
measurement_protocol: biochemical
Assay type: tissue-based, Lens of camera-type eye
measured_property: IC50

>  <compound>
CC(C)(Oc1ccc(C2CCCc3ccccc32)cc1)C(=O)O (stereo not drawn)

>  <IC50>
Not Active

$$$$
>  <compound>
C/C=C/C[C@@H](C)[C@@H](O)[C@H]1C(=O)N[C@@H](CC)C(=O)N(C)CC(=O)N(C)[C@@H](CC(C)C)C(=O)N[C@@H](C(C)C)C(=O)N(C)[C@@H](CC(C)C)C(=O)N[C@@H](C)C(=O)N[C@H](C)C(=O)N(C)[C@@H](CC(C)C)C(=O)N(C)[C@@H](CC(C)C)C(=O)N(C)[C@@H](C(C)C)C(=O)N1C

>  <IC50>
Not Active

$$$$
>  <compound>
CN(C)/N=N/c1[nH]cnc1C(N)=O

>  <IC50>
Not Active

$$$$
>  <compound>
[H]/N=C(/N)N[C@H]1[C@H](O)[C@@H](O)[C@H](O[C@@H]2O[C@@H](C)[C@](O)(C=O)[C@H]2O[C@@H]2O[C@@H](CO)[C@H](O)[C@@H](O)[C@@H]2NC)[C@@H](N/C(N)=N\[H])[C@@H]1O

>  <IC50>
Not Active

$$$$

Inquiry: For the compound shown here, `O=C1CC2(CCCC2)CC(=O)N1CCCCN1CCN(c2ncccn2)CC1` , give the reported IC50.
Reply text: Not Active

Inquiry: Please answer likewise for O=C(C1CCCCC1)N1CC(=O)N2CCc3ccccc3C2C1 (stereo not drawn)
Reply text: Not Active

Inquiry: Another compound to look at: `CC(C)c1nc(CN(C)C(=O)N[C@H](C(=O)N[C@@H](Cc2ccccc2)C[C@H](O)[C@H](Cc2ccccc2)NC(=O)OCc2cncs2)C(C)C)cs1`
Reply text: Not Active

###

measurement_protocol: DRUGMATRIX: Calcium Channel Type L, Phenylalkylamine radioligand binding (ligand: [3H] (-)-Desmethoxyverapamil (D-888))
Assay type: cell membranes, Rattus norvegicus, Wistar, Brain, Membrane
condition_parameters: Not Active = under 50% inhibition at 10 µM
measured_property: IC50

>  <compound>
CC1(C)O[C@@H]2C[C@H]3[C@@H]4C[C@H](F)C5=CC(=O)CC[C@]5(C)[C@H]4[C@@H](O)C[C@]3(C)[C@]2(C(=O)CO)O1 [FLURANDRENOLIDE]

>  <measured_property>
IC50

>  <assay_result>
Not Active

$$$$
>  <compound>
[H]/N=C(/N)N[C@H]1[C@H](O)[C@@H](O)[C@H](O[C@@H]2O[C@@H](C)[C@](O)(C=O)[C@H]2O[C@@H]2O[C@@H](CO)[C@H](O)[C@@H](O)[C@@H]2NC)[C@@H](N/C(N)=N\[H])[C@@H]1O [STREPTOMYCIN]

>  <measured_property>
IC50

>  <assay_result>
Not Active

$$$$
>  <compound>
COc1cccc2c1C(=O)c1c(O)c3c(c(O)c1C2=O)C[C@@](O)(C(=O)CO)C[C@@H]3O[C@H]1C[C@H](N)[C@H](O)[C@H](C)O1 [DOXORUBICIN]

>  <measured_property>
IC50

>  <assay_result>
Not Active

$$$$

###

measurement_protocol: DRUGMATRIX: Sodium/nucleoside co-transporter radioligand binding (ligand: nitrobenzylthioinosine)
Assay type: cell membranes, Cavia porcellus, Dunkin-Hartley, Cerebral cortex, Membrane
condition_parameters: Not Active = under 50% inhibition at 10 µM

>  <mol_smiles>
CC[C@]1(O)C[C@@H]2CN(CCc3c([nH]c4ccccc34)[C@@](C(=O)OC)(c3cc4c(cc3OC)N(C)[C@H]3[C@@](O)(C(=O)OC)[C@H](OC(C)=O)[C@]5(CC)C=CCN6CC[C@]43[C@@H]65)C2)C1

>  <IC50>
Not Active

$$$$
>  <mol_smiles>
C/C=C/C[C@@H](C)[C@@H](O)[C@H]1C(=O)N[C@@H](CC)C(=O)N(C)CC(=O)N(C)[C@@H](CC(C)C)C(=O)N[C@@H](C(C)C)C(=O)N(C)[C@@H](CC(C)C)C(=O)N[C@@H](C)C(=O)N[C@H](C)C(=O)N(C)[C@@H](CC(C)C)C(=O)N(C)[C@@H](CC(C)C)C(=O)N(C)[C@@H](C(C)C)C(=O)N1C

>  <IC50>
Not Active

$$$$

###

system_tested: Carbonic anhydrase 2 (Homo sapiens, UniProt P00918)
measurement_protocol: DRUGMATRIX: Carbonic Anhydrase II enzyme inhibition (substrate: 4-Nitrophenyl acetate (4-NPA))
Format: tissue-based, Erythrocyte
condition_parameters: erythrocyte; Not Active = under 50% inhibition at 10 µM

>  <compound>
CC1(C)O[C@@H]2C[C@H]3[C@@H]4C[C@H](F)C5=CC(=O)C=C[C@]5(C)[C@H]4[C@@H](O)C[C@]3(C)[C@]2(C(=O)CO)O1 [FLUNISOLIDE]

>  <system_tested>
Carbonic anhydrase 2 (Homo sapiens, UniProt P00918)

>  <IC50>
Not Active

$$$$
>  <compound>
CC(C)(Oc1ccc(C2CCCc3ccccc32)cc1)C(=O)O (centres undefined)

>  <system_tested>
Carbonic anhydrase 2 (Homo sapiens, UniProt P00918)

>  <IC50>
Not Active

$$$$
>  <compound>
CCCN(CCC)C(=O)C(CCC(=O)O)NC(=O)c1ccccc1 (centres undefined) [PROGLUMIDE]

>  <system_tested>
Carbonic anhydrase 2 (Homo sapiens, UniProt P00918)

>  <IC50>
Not Active

$$$$
>  <compound>
CC(C)c1nc(CN(C)C(=O)N[C@H](C(=O)N[C@@H](Cc2ccccc2)C[C@H](O)[C@H](Cc2ccccc2)NC(=O)OCc2cncs2)C(C)C)cs1

>  <system_tested>
Carbonic anhydrase 2 (Homo sapiens, UniProt P00918)

>  <IC50>
Not Active

$$$$

###

system_tested: D(3) dopamine receptor (Homo sapiens, UniProt P35462)
Sequence (P35462 whole entry): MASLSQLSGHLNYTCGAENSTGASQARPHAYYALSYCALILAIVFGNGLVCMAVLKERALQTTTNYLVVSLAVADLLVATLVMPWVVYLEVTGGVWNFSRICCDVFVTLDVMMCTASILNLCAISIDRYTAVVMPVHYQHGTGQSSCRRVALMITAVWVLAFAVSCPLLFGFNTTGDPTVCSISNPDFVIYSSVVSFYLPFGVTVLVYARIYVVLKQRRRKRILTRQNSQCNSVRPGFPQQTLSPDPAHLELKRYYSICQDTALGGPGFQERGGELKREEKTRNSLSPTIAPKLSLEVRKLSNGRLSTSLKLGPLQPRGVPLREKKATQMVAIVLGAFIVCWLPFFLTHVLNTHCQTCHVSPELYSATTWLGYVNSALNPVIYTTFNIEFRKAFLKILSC
measurement_protocol: DRUGMATRIX: Dopamine D3 radioligand binding (ligand: [3H] Spiperone)
Assay type: cell membranes, CHO, Membrane
condition_parameters: cho
measured_property: IC50

>  <compound>
C[C@@]12C(=O)OC(=O)[C@]1(C)[C@H]1CC[C@@H]2O1

>  <assay_result>
Not Active

$$$$
>  <compound>
COc1ccccc1C(=O)N1CCC(Cc2ccccc2)CC1

>  <assay_result>
Not Active

$$$$
>  <compound>
CCN1CC(CCN2CCOCC2)C(c2ccccc2)(c2ccccc2)C1=O (stereo not given)

>  <assay_result>
Not Active

$$$$
>  <compound>
COc1cc2c(c3oc(=O)c4c(c13)CCC4=O)[C@@H]1C=CO[C@@H]1O2

>  <assay_result>
Not Active

$$$$
>  <compound>
CC(=O)Nc1ccc(O)cc1

>  <assay_result>
Not Active

$$$$

Inquiry: For the compound CC(=O)CC(c1ccccc1)c1c(O)c2ccccc2oc1=O (stereo not given) , what IC50 is on record?
Reply text: Not Active

Inquiry: Try this compound next: COc1ccc2[nH]c([S+]([O-])Cc3ncc(C)c(OC)c3C)nc2c1 (stereo not given)
Reply text: Not Active

Inquiry: Next: `CCn1cc(C(=O)O)c(=O)c2cc(F)c(N3CCN(C)CC3)cc21`
Reply text: Not Active

Inquiry: And what about the compound OC(CCN1CCCCC1)(c1ccccc1)C1CCCCC1 (stereo not given) ?
Reply text: Not Active

Inquiry: Query `Oc1ccc(OCc2ccccc2)cc1` next
Reply text: Not Active

###

system_tested: Adenosine receptor A2a (Homo sapiens)
Sequence (P29274 whole entry): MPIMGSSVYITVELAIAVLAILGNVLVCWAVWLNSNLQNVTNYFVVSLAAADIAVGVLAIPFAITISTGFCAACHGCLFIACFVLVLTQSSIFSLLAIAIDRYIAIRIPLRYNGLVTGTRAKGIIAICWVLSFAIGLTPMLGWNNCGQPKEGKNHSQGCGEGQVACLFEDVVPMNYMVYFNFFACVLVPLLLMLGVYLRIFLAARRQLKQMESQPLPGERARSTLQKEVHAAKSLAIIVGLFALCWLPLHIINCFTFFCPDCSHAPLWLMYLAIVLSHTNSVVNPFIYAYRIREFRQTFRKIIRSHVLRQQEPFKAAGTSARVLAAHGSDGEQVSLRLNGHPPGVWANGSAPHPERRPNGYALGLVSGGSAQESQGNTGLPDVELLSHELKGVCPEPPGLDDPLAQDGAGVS
measurement_protocol: DRUGMATRIX: Adenosine A2A radioligand binding (ligand: […])
Type: cell membranes, HEK293, Membrane
condition_parameters: hek293; Not Active = under 50% inhibition at 10 µM

>  <compound>
Cc1cc(C)nc(NS(=O)(=O)c2ccc(N)cc2)n1

>  <IC50>
Not Active

$$$$
>  <compound>
CO[C@H]1/C=C/O[C@@]2(C)Oc3c(C)c(O)c4c(c3C2=O)C2=NC3(CCN(CC(C)C)CC3)NC2=C(NC(=O)/C(C)=C\C=C\[C@H](C)[C@H](O)[C@@H](C)[C@@H](O)[C@@H](C)[C@H](OC(C)=O)[C@@H]1C)C4=O

>  <IC50>
Not Active

$$$$
>  <compound>
C#C[C@]1(OC(C)=O)CC[C@H]2[C@@H]3CCC4=CC(=O)CC[C@@H]4[C@H]3CC[C@@]21C [NORETHINDRONE ACETATE]

>  <IC50>
Not Active

$$$$

###

system_tested: B2 bradykinin receptor (Homo sapiens, UniProt P30411); further: in other assays of this panel Not Active means under 50% inhibition at 10 µM
Sequence (P30411 whole entry): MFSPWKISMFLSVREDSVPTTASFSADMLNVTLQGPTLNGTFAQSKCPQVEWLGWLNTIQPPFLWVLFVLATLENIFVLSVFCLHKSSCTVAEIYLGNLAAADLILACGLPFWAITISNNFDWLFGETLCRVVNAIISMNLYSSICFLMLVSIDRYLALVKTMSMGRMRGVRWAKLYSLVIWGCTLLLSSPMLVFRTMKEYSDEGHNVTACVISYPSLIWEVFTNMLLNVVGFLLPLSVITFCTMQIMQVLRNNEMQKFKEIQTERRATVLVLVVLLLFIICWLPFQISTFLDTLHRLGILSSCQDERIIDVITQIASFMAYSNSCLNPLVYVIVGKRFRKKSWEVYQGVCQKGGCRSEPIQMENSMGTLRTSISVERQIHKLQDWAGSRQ
Format: cell membranes, Membrane
condition_parameters: chem-1
measured_property: IC50

>  <molecule>
[Cl-].[Cl-].[Zn+2] [ZINC CHLORIDE]

>  <IC50>
Not Active

$$$$
>  <molecule>
CCc1c2c(nc3ccc(OC(=O)N4CCC(N5CCCCC5)CC4)cc13)-c1cc3c(c(=O)n1C2)COC(=O)[C@]3(O)CC

>  <IC50>
Not Active

$$$$
>  <molecule>
CN1C(C(=O)Nc2ccccn2)=C(O)c2sccc2S1(=O)=O

>  <IC50>
Not Active

$$$$
>  <molecule>
CC1=C(CC(=O)O)c2cc(F)ccc2/C1=C\c1ccc([S+](C)[O-])cc1 (stereo not drawn)

>  <IC50>
Not Active

$$$$
>  <molecule>
COc1ccc2c(c1)[C@]13CCCC[C@@H]1[C@H](C2)N(C)CC3

>  <IC50>
Not Active

$$$$

Inquiry: Please report the recorded IC50 for CCOC(=O)C1=C(C)NC(C)=C(C(=O)OC)C1c1cccc([N+](=O)[O-])c1 (stereo not drawn) .
Reply text: Not Active

Inquiry: Now this one: `CCCC(CCC)C(=O)O`
Reply text: Not Active

Inquiry: Now consider C[N+](C)(C)CCO.[Cl-] [CHOLINE CHLORIDE] .
Reply text: Not Active

Inquiry: // next record `N[C@H](CSC(=S)NCc1ccccc1)C(=O)O`
Reply text: Not Active
